For each entry below, report its MCC at 72 h value.
- method: Cytotoxicity against MDCK cells assessed as alteration in cell morphology after 3 days by microscopic method
- Type: cell-based, Canis lupus familiaris
- assay.context: dog

As a guide, the following entries are already answered.
{"compound": "CCCCCCCCSC1=C(SCCCCCCCC)C(=O)N(CCOCCOCCOCCOCc2cn(C3C(=O)N[C@@H]4Cc5ccc(c(Cl)c5)Oc5cc6cc(c5O)Oc5ccc(cc5Cl)[C@@H](O[C@@H]5O[C@H](CO)[C@@H](O)[C@H](O)[C@H]5NC(C)=O)[C@H]5NC(=O)[C@H](NC(O)[C@@H]6NC(=O)[C@@H](NC4=O)c4cc(O)cc(c4)Oc4cc3ccc4O)c3ccc(O)c(c3)-c3c(O)cc(O)cc3[C@H](C(=O)O)NC5=O)nn2)C1=O (stereo partly drawn)", "MCC at 72 h": "≥ 4 µM"}
{"compound": "CC(=O)N[C@H]1[C@H]([C@H](O)[C@H](O)CO)OC(C(=O)O)=C[C@@H]1N=C(N)N", "MCC at 72 h": "> 100 µM"}

Quick one: MCC at 72 h of CC(=O)N[C@H]1[C@H](O[C@@H]2c3ccc(c(Cl)c3)Oc3cc4cc(c3O)Oc3ccc(cc3Cl)C[C@H]3NC(=O)[C@H](n5cc(CCOc6c7cc(C(C)(C)C)cc6Cc6cc(C(C)(C)C)cc(c6O)Cc6cc(C(C)(C)C)cc(c6O)Cc6cc(C(C)(C)C)cc(c6O)C7)nn5)c5ccc(O)c(c5)Oc5cc(O)cc(c5)[C@H](NC3=O)C(=O)N[C@H]4C(O)N[C@H]3C(=O)N[C@H]2C(=O)N[C@@H](C(=O)O)c2cc(O)cc(O)c2-c2cc3ccc2O)O[C@H](CO)[C@@H](O)[C@@H]1O (stereo partly drawn) ? ≥ 20 µM

Each recorded value in this set is attributed to ChEMBL document CHEMBL4270630.
